# studySystem: purified ITK (Invitrogen PV3875) (Homo sapiens)
# Construct: purchased Invitrogen PV3875
# assayMethodText: ITK peptide phosphorylation assay (Caliper LabChip or LCMS)
# Format: biochemical
# conditionContext: Table 1, Examples 141-279
Please note: Ki exactly at 1 nM is 0 (no). Only values below 1 nM get 1 (yes).

CN(CCC(c1ccccc1)n1cc(NC(=O)c2n[nH]c3ccccc23)cn1)CC(F)F (centres unmarked) [Example 274]	0 (no)
O=C(Nc1cnn(Cc2ccccc2)c1)c1n[nH]c2cc(-c3cn[nH]c3)ccc12 [Example 181]	0 (no)
CC(=O)N(C)CCC(c1ccccc1)n1cc(NC(=O)c2n[nH]c3ccccc23)cn1 (centres unmarked) [Example 266]	0 (no)

Query string: Does N#Cc1cccc(Cn2cc(NC(=O)c3n[nH]c4cc(C5CNC5)ccc34)cn2)c1 [Example 182] have Ki strictly under 1 nM?
Result string: 0 (no)

Query string: Consider O=C(Nc1cnn(CC2CCOC2)c1)c1n[nH]c2cc(-c3cn[nH]c3)ccc12 (centres unmarked) [Example 235] . Does its Ki lie strictly below 1 nM?
Result string: 0 (no)

Query string: Say whether its Ki is strictly beneath 1 nM. Entry: COc1cncc(-c2ccc3c(C(=O)Nc4cnn(Cc5ccccn5)c4)n[nH]c3c2)c1 [Example 221]
Result string: 0 (no)

Query string: Could you please tell me whether Ki recorded for CN(C)CCC(c1cccc(C(F)(F)F)c1)n1cc(NC(=O)c2n[nH]c3cc(-c4cn[nH]c4)ccc23)cn1 (centres unmarked) [Example 248] is less than 1 nM?
Result string: 1 (yes)

Query string: Is the reported Ki for Cc1cccc(C(CCN(C)C)n2cc(NC(=O)c3n[nH]c4cc(-c5cn[nH]c5)ccc34)cn2)c1 (centres unmarked) [Example 246] strictly below 1 nM?
Result string: 1 (yes)

====

# studySystem: purified ITK (Invitrogen PV3875) (Homo sapiens, UniProt Q08881)
# Construct: purchased Invitrogen PV3875
# Sequence (Q08881 1-620): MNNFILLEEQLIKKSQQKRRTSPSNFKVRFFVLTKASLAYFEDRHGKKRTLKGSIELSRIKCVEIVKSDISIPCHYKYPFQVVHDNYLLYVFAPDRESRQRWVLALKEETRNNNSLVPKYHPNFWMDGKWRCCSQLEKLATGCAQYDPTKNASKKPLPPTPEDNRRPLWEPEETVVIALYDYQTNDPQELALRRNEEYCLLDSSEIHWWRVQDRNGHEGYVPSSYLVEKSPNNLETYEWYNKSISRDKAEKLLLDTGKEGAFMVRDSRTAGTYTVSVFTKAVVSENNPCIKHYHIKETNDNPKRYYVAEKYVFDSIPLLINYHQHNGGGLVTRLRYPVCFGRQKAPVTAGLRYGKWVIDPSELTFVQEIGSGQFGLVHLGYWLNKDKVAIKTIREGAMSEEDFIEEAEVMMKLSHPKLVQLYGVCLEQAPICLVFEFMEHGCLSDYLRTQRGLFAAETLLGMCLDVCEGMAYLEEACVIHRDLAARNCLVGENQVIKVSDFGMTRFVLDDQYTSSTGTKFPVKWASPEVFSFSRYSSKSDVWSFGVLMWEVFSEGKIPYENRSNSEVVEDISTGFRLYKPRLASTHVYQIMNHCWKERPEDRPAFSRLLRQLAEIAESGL
# assayMethodText: ITK peptide phosphorylation assay (Caliper LabChip or LCMS)
# Format: biochemical
# conditionContext: Table 2, Examples 1-140, class symbols
endpoint: Ki

These solved cases illustrate the format of a correct answer.
O=C(Nc1cnn(Cc2cccc(-c3nn[nH]n3)c2)c1)c1n[nH]c2cc(-c3cn[nH]c3)ccc12	0.01 to 1 nM
CC(C)(O)c1cccc(Cn2cc(NC(=O)c3n[nH]c4cc(-c5cn[nH]c5)ccc34)cn2)c1	1 to 100 nM
CC(C)(c1cccc(C#N)c1)n1cc(NC(=O)c2n[nH]c3ccccc23)cn1	> 100 nM
O=C(Nc1cnn(Cc2cccc(-c3cccnc3)c2)c1)c1n[nH]c2cc(-c3cn[nH]c3)ccc12	0.01 to 1 nM
COc1cc(Cn2cc(NC(=O)c3n[nH]c4ccccc34)cn2)cc(OC)c1	1 to 100 nM

Query string: Tell me measured Ki for "N#Cc1cncc(-c2ccc3c(C(=O)Nc4cnn(Cc5ccccc5)c4)n[nH]c3c2)c1" please.
Result string: 1 to 100 nM

Query string: Please give the documented Ki of "CC[C@@H](c1ccccc1)n1cc(NC(=O)c2n[nH]c3cc(-c4ccncc4)ccc23)cn1"
Result string: 1 to 100 nM

Query string: Supply recorded Ki for "O=C(Nc1cnn(Cc2cscn2)c1)c1n[nH]c2cc(-c3cc[nH]n3)ccc12" here.
Result string: 1 to 100 nM

====

# studySystem: purified ITK (Invitrogen PV3875) (Homo sapiens, UniProt Q08881)
# Construct: purchased Invitrogen PV3875
# Sequence (Q08881 1-620): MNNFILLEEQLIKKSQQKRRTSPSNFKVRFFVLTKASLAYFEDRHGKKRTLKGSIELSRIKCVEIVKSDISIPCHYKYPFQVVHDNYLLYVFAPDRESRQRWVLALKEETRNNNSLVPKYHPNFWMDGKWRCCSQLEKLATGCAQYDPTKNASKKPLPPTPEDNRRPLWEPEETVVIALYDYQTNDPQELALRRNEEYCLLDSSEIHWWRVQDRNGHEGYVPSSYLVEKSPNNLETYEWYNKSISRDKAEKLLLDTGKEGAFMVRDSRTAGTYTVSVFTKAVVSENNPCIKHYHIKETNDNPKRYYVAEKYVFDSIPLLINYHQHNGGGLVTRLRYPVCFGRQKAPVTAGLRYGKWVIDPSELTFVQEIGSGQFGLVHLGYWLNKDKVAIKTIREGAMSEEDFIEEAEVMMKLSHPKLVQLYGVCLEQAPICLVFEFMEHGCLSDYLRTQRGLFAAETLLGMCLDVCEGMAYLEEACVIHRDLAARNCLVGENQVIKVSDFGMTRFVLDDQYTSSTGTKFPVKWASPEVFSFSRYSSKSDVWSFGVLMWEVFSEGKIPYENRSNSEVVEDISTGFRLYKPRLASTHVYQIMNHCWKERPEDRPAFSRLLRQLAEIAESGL
# assayMethodText: ITK peptide phosphorylation assay (Caliper LabChip or LCMS)
# Format: biochemical
# conditionContext: Table 2, Examples 1-140, class symbols
endpoint: Ki

CC(O)CNCc1ccc(Cn2cc(NC(=O)c3n[nH]c4ccccc34)cn2)cc1 (stereo not drawn)	1 to 100 nM
CN(CCC#N)Cc1ccc(Cn2cc(NC(=O)c3n[nH]c4ccccc34)cn2)cc1	1 to 100 nM
O=C(Nc1cnn(Cc2ccc(F)c(F)c2)c1)c1n[nH]c2ccccc12	1 to 100 nM
O=C(O)c1cccc(Cn2cc(NC(=O)c3n[nH]c4cc(-c5cn[nH]c5)ccc34)cn2)c1	0.01 to 1 nM
CN(C)Cc1ccc(Cn2cc(NC(=O)c3n[nH]c4ccccc34)cn2)cc1	1 to 100 nM

Query string: Supply reported Ki belonging to this compound: "CNC(=O)c1ccc(Cn2cc(NC(=O)c3n[nH]c4cc(-c5cn[nH]c5)ccc34)cn2)o1"
Result string: 1 to 100 nM

Query string: Identify the reported Ki for the following entry. "O=C(Nc1cnn(Cc2ccc(C(F)(F)F)cc2)c1)c1n[nH]c2ccccc12"
Result string: 1 to 100 nM

Query string: Read off the recorded Ki for "O=C(Nc1cnn(Cc2cccc(-c3ccccn3)c2)c1)c1n[nH]c2cc(-c3cn[nH]c3)ccc12"
Result string: 1 to 100 nM

Query string: Identify measured Ki corresponding to "NC(=O)c1ccc(Cn2cc(NC(=O)c3n[nH]c4cc(-c5cn[nH]c5)ccc34)cn2)cc1"
Result string: 0.01 to 1 nM

Query string: Name the recorded Ki of the item "O=C(Nc1cnn(Cc2cc(CN3CCOCC3)on2)c1)c1n[nH]c2cc(-c3cn[nH]c3)ccc12" in your answer.
Result string: 1 to 100 nM

Query string: Give Ki for "COc1ccc(-c2ccc3c(C(=O)Nc4cnn(Cc5cccc(C#N)c5)c4)n[nH]c3c2)cn1"
Result string: 1 to 100 nM

Query string: Dear colleague, please send me the reported Ki for "O=C(Nc1cnn(Cc2ccc(CNC3CCC3)cc2)c1)c1n[nH]c2ccccc12" when you can.
Result string: 1 to 100 nM

====

# studySystem: purified ITK (Invitrogen PV3875) (Homo sapiens, UniProt Q08881)
# Construct: purchased Invitrogen PV3875
# assayMethodText: ITK peptide phosphorylation assay (Caliper LabChip or LCMS)
# Assay type: biochemical
# conditionContext: Table 1, Examples 141-279
endpoint: Ki (nM)
Reply numerically in nM, unit not repeated.

Use these answered entries as a reference point.
CC(CO)c1ccc2[nH]nc(C(=O)Nc3cnn(Cc4cccc(C#N)c4)c3)c2c1 (stereo not shown) [Example 186]	22
COc1cncc(-c2ccc3c(C(=O)Nc4cnn(C(CCN(C)C)c5ccccc5)c4)n[nH]c3c2)c1 (stereo not shown) [Example 212]	1.64
O=C(Nc1cnn(Cc2cncnc2)c1)c1n[nH]c2cc(-c3cn[nH]c3)ccc12 [Example 226]	1.12
CNc1ncc(-c2ccc3c(C(=O)Nc4cnn(Cc5ccccc5)c4)n[nH]c3c2)s1 [Example 190]	18.5
O=C(Nc1cnn(Cc2ccncc2)c1)c1n[nH]c2cc(-c3cn[nH]c3)ccc12 [Example 218]	3.19
Cn1ccc(-c2ccc3c(C(=O)Nc4cnn(Cc5cccc(C#N)c5)c4)n[nH]c3c2)n1 [Example 203]	1100
CNCCC(c1ccccc1)n1cc(NC(=O)c2n[nH]c3ccccc23)cn1 (stereo not shown) [Example 263]	5.14
O=C(Nc1cnn(Cc2csc(C3CCNCC3)n2)c1)c1n[nH]c2cc(-c3cn[nH]c3)ccc12 [Example 160]	4.65
O=C(Nc1cnn(CC2CCCOC2)c1)c1n[nH]c2cc(-c3cn[nH]c3)ccc12 (stereo not shown) [Example 241]	2.79
CN(CCC(c1ccccc1)n1cc(NC(=O)c2n[nH]c3ccccc23)cn1)S(C)(=O)=O (stereo not shown) [Example 272]	41.6

Query string: Recall and state the measured Ki for O=C(Nc1cnn(C(CO)c2ccccc2)c1)c1n[nH]c2ccccc12 (stereo not shown) [Example 257] .
Result string: 35.5
